# Measured On: human recombinant mGluR5 (Homo sapiens)
# Construct: expressed in transfected cells; host or cells: HEK 293 cell line cultured with tetracycline, hygromycin and geneticin; tetracycline removed 3-7 days before the assay
# Sequence (P41594 21-1212): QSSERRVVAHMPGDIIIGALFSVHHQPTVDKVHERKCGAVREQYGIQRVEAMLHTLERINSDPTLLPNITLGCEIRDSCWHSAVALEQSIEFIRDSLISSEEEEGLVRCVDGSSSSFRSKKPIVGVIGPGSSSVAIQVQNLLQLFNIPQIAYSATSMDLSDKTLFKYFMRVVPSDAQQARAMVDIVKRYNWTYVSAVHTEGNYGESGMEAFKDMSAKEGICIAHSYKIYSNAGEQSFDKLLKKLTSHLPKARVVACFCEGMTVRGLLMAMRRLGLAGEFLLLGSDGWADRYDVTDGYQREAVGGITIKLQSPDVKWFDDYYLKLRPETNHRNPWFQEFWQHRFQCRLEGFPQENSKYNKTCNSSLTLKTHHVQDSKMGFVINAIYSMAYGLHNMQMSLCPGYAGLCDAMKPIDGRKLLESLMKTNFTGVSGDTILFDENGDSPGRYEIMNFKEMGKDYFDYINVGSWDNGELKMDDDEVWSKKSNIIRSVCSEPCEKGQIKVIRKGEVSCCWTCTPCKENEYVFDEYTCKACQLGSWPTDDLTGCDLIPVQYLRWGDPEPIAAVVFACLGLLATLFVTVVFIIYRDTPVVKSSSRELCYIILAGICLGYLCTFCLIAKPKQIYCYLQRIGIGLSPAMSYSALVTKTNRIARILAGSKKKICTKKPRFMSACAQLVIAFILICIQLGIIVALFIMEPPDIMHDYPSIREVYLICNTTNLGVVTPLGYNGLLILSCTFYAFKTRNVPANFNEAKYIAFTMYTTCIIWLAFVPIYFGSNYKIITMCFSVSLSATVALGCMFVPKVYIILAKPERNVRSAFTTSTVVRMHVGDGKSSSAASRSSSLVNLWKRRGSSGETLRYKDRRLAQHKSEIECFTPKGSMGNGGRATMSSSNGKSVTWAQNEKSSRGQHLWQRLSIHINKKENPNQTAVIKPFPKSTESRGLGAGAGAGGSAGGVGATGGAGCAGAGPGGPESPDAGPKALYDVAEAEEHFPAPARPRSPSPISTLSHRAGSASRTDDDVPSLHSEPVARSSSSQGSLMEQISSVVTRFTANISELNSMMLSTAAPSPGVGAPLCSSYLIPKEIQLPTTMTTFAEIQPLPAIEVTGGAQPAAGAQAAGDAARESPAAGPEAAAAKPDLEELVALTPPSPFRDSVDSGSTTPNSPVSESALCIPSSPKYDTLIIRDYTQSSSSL
# Test Description: positive modulation of mGluR5, calcium based FLIPR assay in HEK 293 cells
# Measurement Context: HEK 293 cell line expressing human recombinant mGluR5; EC50 of the modulation of the glutamate response (glutamate approx. 5% basal stimulation); peak height of Ca release fluorescence signal
# Experimental: The positive modulation of mGluR5 is measured in a HEK 293 cell line expressing human recombinant mGluR5 and is detected with calcium based FLIPR assay. […] 20 μl of each compound solution are then transferred to the assay plate and the Ca2+ kinetic is measured to determine any intrinsic compound activity. […] The peak height of the Ca release related fluorescence signal (9-66) is used for the EC50. The EC50 of the modulation is calculated over a nonlinear regression with GraphPad Prism (Table 1).
Task for the reader: assign each of the following molecules its reported EC50.
Answers are plain numbers, in nM.

Previously resolved entries follow.
COc1cc(N2CCN(C(=O)Cn3nc(-c4ccc(C)c(C)c4)nc3-c3ccccc3)CC2)ncn1    50
O=C(Cn1nc(-c2ccc(F)cn2)nc1-c1ccc(F)cc1)N1CCN(c2ncccn2)CC1    320
COc1cc(N2CCN(C(=O)Cn3nc(-c4ccc(F)c(C(F)(F)F)c4)nc3-c3ccccc3)CC2)ncn1    270

Quick one: give me EC50 for each item below, same order please.
1. C=C(C)c1nc(-c2ccccc2)nn1CC(=O)N1CCN(c2ncccn2)CC1
2. CN(C)c1ccnc(N2CCN(C(=O)Cn3nc(-c4ccc(F)cc4)nc3-c3ccc(F)cc3)CC2)n1
3. O=C(Cn1nc(-c2ccc(F)cc2)nc1-c1ccc(F)cc1)N1CCN(c2cc(OCCO)ncn2)CC1
4. COc1ccc(-c2nc(-c3ccccc3)n(CC(=O)N3CCN(c4cc(OC)ncn4)CC3)n2)cc1
5. O=C(Cn1nc(-c2ccc(F)cc2)nc1-c1ccc(F)cc1)N1CCN(c2ncccc2C(F)(F)F)CC1
6. O=C(Cn1nc(-c2ccc(F)cc2)nc1C1CCCC1)N1CCN(c2ncccn2)CC1
7. O=C(Cn1nc(-c2ccc(F)cc2)nc1-c1ccc(F)cc1)N1CCN(c2cc(OCCOCCO)ncn2)CC1

1470
66
165
174
474
586
64
